# Tested on: SK-LMS-1
# run-description: relative viability vs DMSO control (72 h) (fraction); higher = more viable cells
# reported-conditions: 0.1235 µM
measured-endpoint: relative viability

>>> endpoint_value("O=C(Nc1cnn2ccc(N3CCC[C@@H]3c3cc(F)ccc3F)nc12)N1CC[C@H](O)C1 [Larotrectinib]")
1.11
>>> endpoint_value("CO[C@H]1C[C@@H]2CC[C@@H](C)[C@@](O)(O2)C(=O)C(=O)N2CCCC[C@H]2C(=O)O[C@H]([C@H](C)C[C@@H]2CC[C@@H](OP(C)(C)=O)[C@H](OC)C2)CC(=O)[C@H](C)/C=C(\\C)[C@@H](O)[C@@H](OC)C(=O)[C@H](C)C[C@H](C)/C=C/C=C/C=C/1C [Ridaforolimus]")
0.559
>>> endpoint_value("CN1CCN(c2ccc3nc(-c4c(N)c5c(F)cccc5[nH]c4=O)[nH]c3c2)CC1 [Dovitinib]")
1.11

The values you see were collected from the supplement of paper PMC10883282.
